# credit: patent US4471117A

Assayed System: monoamine oxidase (type A, tryptamine substrate) (Rattus norvegicus, UniProt P21396)
Sequence (P21396 whole entry): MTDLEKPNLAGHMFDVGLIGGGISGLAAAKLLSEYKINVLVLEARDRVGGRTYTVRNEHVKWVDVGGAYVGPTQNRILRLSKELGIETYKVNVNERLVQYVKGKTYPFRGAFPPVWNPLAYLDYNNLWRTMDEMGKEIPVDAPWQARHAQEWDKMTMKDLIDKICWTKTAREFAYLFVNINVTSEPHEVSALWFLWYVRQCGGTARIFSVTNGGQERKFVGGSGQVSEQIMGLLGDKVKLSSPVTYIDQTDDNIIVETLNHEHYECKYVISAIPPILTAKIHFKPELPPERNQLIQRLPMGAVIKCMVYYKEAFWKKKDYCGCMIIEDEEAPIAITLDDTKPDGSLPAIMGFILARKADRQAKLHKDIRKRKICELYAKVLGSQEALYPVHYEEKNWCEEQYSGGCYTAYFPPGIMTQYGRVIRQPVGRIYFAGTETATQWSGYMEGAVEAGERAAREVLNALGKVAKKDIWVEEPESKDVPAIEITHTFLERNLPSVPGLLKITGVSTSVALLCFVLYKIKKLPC
Protocol Description: In-vitro monoamine oxidase inhibition, [14C]tryptamine as substrate
Type: biochemical
Experimental Conditions: Table 1; rat brain monoamine oxidase extract, 37° C., 20 minutes, pH 7.4; read-out: I.C.50 -value using as substrate [14C]tryptamine
pIC50: −log10 of the molar value.
Observed Property: pIC50

Look over these answered cases.
Query string: Which measured pIC50 value corresponds to CCCCc1ccc2c(c1)SC1=NCCCN12 ?
Result string: 7.49

Query string: Which measured pIC50 value corresponds to COc1cc(CNc2ccc3c(c2)SC2=NCCCN23)cc(OC)c1OC [8-NHCH2 [3,4,5-(OCH3)3C6 H2]] ?
Result string: 4.70

Query string: Which measured pIC50 value corresponds to CCNc1cccc2c1SC1=NCCCN12 ?
Result string: 8.52

Query string: Which measured pIC50 value corresponds to c1cc2c(cc1NC1CCCC1)N1CCCN=C1S2 ?
Result string: 8.30

Query string: Which measured pIC50 value corresponds to NC(=O)Nc1ccc2c(c1)N1CCCN=C1S2 ?
Result string: 6.07

1. CCOC(=O)C(=CNc1ccc2c(c1)SC1=NCCCN12)C(=O)OCC
2. CC(C)Nc1ccc2c(c1)SC1=NCCCN12
Query string: # argmax over pIC50 for candidates 1 and 2 Could you answer with the label of the item you picked?
Result string: 2

* * *

Assayed System: monoamine oxidase (type B, β-phenylethylamine substrate) (Rattus norvegicus, UniProt P19643)
Sequence (P19643 whole entry): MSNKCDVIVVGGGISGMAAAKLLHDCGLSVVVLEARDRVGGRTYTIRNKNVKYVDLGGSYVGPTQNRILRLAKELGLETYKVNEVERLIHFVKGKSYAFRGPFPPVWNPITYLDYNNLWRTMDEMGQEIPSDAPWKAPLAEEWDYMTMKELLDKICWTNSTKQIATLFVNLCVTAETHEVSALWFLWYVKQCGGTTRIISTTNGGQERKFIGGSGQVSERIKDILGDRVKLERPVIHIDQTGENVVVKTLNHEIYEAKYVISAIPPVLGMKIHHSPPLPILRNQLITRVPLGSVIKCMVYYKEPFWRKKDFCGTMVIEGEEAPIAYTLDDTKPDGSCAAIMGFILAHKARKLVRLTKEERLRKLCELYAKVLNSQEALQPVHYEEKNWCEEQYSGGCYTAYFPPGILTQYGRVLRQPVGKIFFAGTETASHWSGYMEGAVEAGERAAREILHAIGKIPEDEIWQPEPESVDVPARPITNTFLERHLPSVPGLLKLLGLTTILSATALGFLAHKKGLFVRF
Protocol Description: In-vitro monoamine oxidase inhibition, [14C]phenylethylamine hydrochloride as substrate
Type: biochemical
Experimental Conditions: Table 1; rat brain monoamine oxidase extract, 37° C., 20 minutes, pH 7.4; read-out: I.C.50 -value using as substrate [14C]phenylethylamine.HCl
pIC50: −log10 of the molar value.
Observed Property: pIC50

Look over these answered cases.
Query string: Which measured pIC50 value corresponds to NC(=O)Nc1ccc2c(c1)N1CCCN=C1S2 ?
Result string: 4.92

Query string: Which measured pIC50 value corresponds to Cc1ccc(CNc2ccc3c(c2)SC2=NCCCN23)cc1 ?
Result string: 7.70

Query string: Which measured pIC50 value corresponds to CCNc1cccc2c1SC1=NCCCN12 ?
Result string: 4.00

Query string: Which measured pIC50 value corresponds to CCCCc1ccc2c(c1)SC1=NCCCN12 ?
Result string: 6.59

Query string: Which measured pIC50 value corresponds to CCCc1ccc2c(c1)N1CCCN=C1S2 ?
Result string: 5.92

I. c1cc2c(cc1C1CCCCC1)SC1=NCCCN12
II. CCOC(=O)C(=CNc1ccc2c(c1)SC1=NCCCN12)C(=O)OCC
Query string: # argmax over pIC50 for candidates I and II Could you answer with the label of the item you picked?
Result string: I
(I: 7.30, II: 6.80)

* * *

Assayed System: monoamine oxidase (type A, tryptamine substrate) (Rattus norvegicus)
Protocol Description: In-vitro monoamine oxidase inhibition, [14C]tryptamine as substrate
Assay type: biochemical
Experimental Conditions: Table 1; rat brain monoamine oxidase extract, 37° C., 20 minutes, pH 7.4; read-out: I.C.50 -value using as substrate [14C]tryptamine
Where a name gives a salt, the structure may show the parent alone.
Observed Property: IC50 (nM)

Look over these answered cases.
Query string: Which measured IC50 value corresponds to COc1ccc(CNc2ccc3c(c2)N2CCCN=C2S3)cc1 [7-NHCH2 (4-OCH3C6 H4)] ?
Result string: 250

Query string: Which measured IC50 value corresponds to CCCc1ccc2c(c1)N1CCCN=C1S2 [7-C3 H7] ?
Result string: 20

Query string: Which measured IC50 value corresponds to Cc1ccc(C(C)(C)C)c2c1N1CCCN=C1S2 [6-CH3,9-C(CH3)3] ?
Result string: 65

Query string: Which measured IC50 value corresponds to O=C(c1ccccc1)c1ccc2c(c1)N1CCCN=C1S2 [7-COC6 H5] ?
Result string: 120

Query string: Which measured IC50 value corresponds to c1cc2c(cc1C1CCCCC1)SC1=NCCCN12 [8-c.C6 H11] ?
Result string: 8.5

Query string: Which measured IC50 value corresponds to CCC(CC)Nc1ccc2c(c1)N1CCCN=C1S2 [7-NHCH(C2 H5)2] ?
Result string: 3.4

Query string: Which measured IC50 value corresponds to Nc1cccc2c1SC1=NCCCN12 [Example 9-NH2, dihydrochloride] ?
Result string: 350

1. Cc1ccc(CNc2ccc3c(c2)SC2=NCCCN23)cc1 [8-NHCH2 (4-CH3C6 H4)]
2. c1ccc2cc3c(cc2c1)SC1=NCCCN13 [7,8-(CHCHCHCH)]
Query string: # argmax over IC50 for candidates 1 and 2 Could you answer with the label of the item you picked?
Result string: 1
(1: 1000 nM, 2: 30 nM)
